tested on: 276233-004-R-J1-PDC KRAS spheroids with HUVEC/MSC, viability; test: Anticancer human tumor 276233-004-R-J1-PDC patient-derived colon adenocarcinoma cell line growth inhibition [KRAS2]; settings: second compound 0.316 µM; first compound 1 µM; stronger effect = lower value
Please assign condition not met whenever viability, T/C is at or above 80%, and condition met whenever it is below.

Query: Report whether reported viability, T/C is lower than 80% (strictly) for CC1COCCN1c1cc(-c2ccnn2C)c2ccnc(-c3ccn[nH]3)c2n1 (stereo not given) + C=CC(=O)N1CCN(c2nc(OCC3CCCN3C)nc3c2CCN(c2cccc4cccc(C)c24)C3)CC1CC#N
Response: condition met

Query: Report whether reported viability, T/C is lower than 80% (strictly) for CC1(C)CCC(CN2CCN(c3ccc(C(=O)NS(=O)(=O)c4ccc(NCC5CCOCC5)c([N+](=O)[O-])c4)c(Oc4cnc5[nH]ccc5c4)c3)CC2)=C(c2ccc(Cl)cc2)C1 + COc1cc2nc(C)nc(NC(C)c3cc(N)cc(C(F)(F)F)c3)c2cc1OC1CCOC1
Response: condition not met

Query: Report whether reported viability, T/C is lower than 80% (strictly) for CC1(C)CCC(CN2CCN(c3ccc(C(=O)NS(=O)(=O)c4ccc(NCC5CCOCC5)c([N+](=O)[O-])c4)c(Oc4cnc5[nH]ccc5c4)c3)CC2)=C(c2ccc(Cl)cc2)C1 + CNCc1ccccc1-c1csc(C(C)Nc2nc(C)nc3cc(OC)c(OC)cc23)c1
Response: condition not met

Query: Report whether reported viability, T/C is lower than 80% (strictly) for O=C(c1cc(Cc2n[nH]c(=O)c3ccccc23)ccc1F)N1CCN(C(=O)C2CC2)CC1 + CC1OCC2(CCN(c3cnc(Sc4ccnc(N)c4Cl)c(N)n3)CC2)C1N
Response: condition met

###

Known viability, T/C of a selection of molecules
tested on: 276233-004-R-J1-PDC KRAS spheroids with HUVEC/MSC, viability; experiment: Anticancer human tumor 276233-004-R-J1-PDC cell line growth inhibition [KRAS2]; conditions: second compound 0.1 µM; first compound 10 µM; stronger effect = lower value;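 note: cells exposed to agents for seven days before viability read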;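 for viability, T/C: 100% = DMSO vehicle control wells and lower values mean fewer viable cells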
Numeric answer only, unit % assumed.

Field: example entries. Status: answers known.
{"columns": ["molecule", "reading"],
 "data": [
  ["COC(=O)c1ccc2c(C(=Nc3ccc(N(C)C(=O)CN4CCN(C)CC4)cc3)c3ccccc3)c(O)[nH]c2c1 + COc1cc2nc(C)nc(NC(C)c3cc(N)cc(C(F)(F)F)c3)c2cc1OC1CCOC1", 83.7],
  ["CC1OCC2(CCN(c3cnc(Sc4ccnc(N)c4Cl)c(N)n3)CC2)C1N (centres undefined) + CNCc1ccccc1-c1csc(C(C)Nc2nc(C)nc3cc(OC)c(OC)cc23)c1", 59],
  ["CC(C)NCC(C(=O)N1CCN(c2ncnc3c2C(C)CC3O)CC1)c1ccc(Cl)cc1 (centres undefined) + CC1OCC2(CCN(c3cnc(Sc4ccnc(N)c4Cl)c(N)n3)CC2)C1N", 51.5],
  ["COC(=O)c1ccc2c(C(=Nc3ccc(N(C)C(=O)CN4CCN(C)CC4)cc3)c3ccccc3)c(O)[nH]c2c1 + C=CC(=O)N1CCN(c2nc(OCC3CCCN3C)nc3c2CCN(c2cccc4cccc(C)c24)C3)CC1CC#N", 64],
  ["COc1cc(Nc2ncc3c(n2)-c2ccc(Cl)cc2C(c2c(F)cccc2OC)=NC3)ccc1C(=O)O + COc1cc2nc(C)nc(NC(C)c3cc(N)cc(C(F)(F)F)c3)c2cc1OC1CCOC1", 57.1],
  ["COC(=O)c1ccc2c(C(=Nc3ccc(N(C)C(=O)CN4CCN(C)CC4)cc3)c3ccccc3)c(O)[nH]c2c1 + C=CC(=O)N1CCN(c2nc(=O)n(-c3c(C)ccnc3C(C)C)c3nc(-c4c(O)cccc4F)c(F)cc23)C(C)C1", 97.2],
  ["COc1cc(Nc2ncc3c(n2)-c2ccc(Cl)cc2C(c2c(F)cccc2OC)=NC3)ccc1C(=O)O + CC1OCC2(CCN(c3cnc(Sc4ccnc(N)c4Cl)c(N)n3)CC2)C1N", 68.5],
  ["CCNC(=O)CC1N=C(c2ccc(Cl)cc2)c2cc(OC)ccc2-n2c(C)nnc21 (centres undefined) + CC1OCC2(CCN(c3cnc(Sc4ccnc(N)c4Cl)c(N)n3)CC2)C1N", 72.8],
  ["CC(C)NCC(C(=O)N1CCN(c2ncnc3c2C(C)CC3O)CC1)c1ccc(Cl)cc1 (centres undefined) + C=CC(=O)N1CCN(c2nc(=O)n(-c3c(C)ccnc3C(C)C)c3nc(-c4c(O)cccc4F)c(F)cc23)C(C)C1", 70.5],
  ["CCNC(=O)CC1N=C(c2ccc(Cl)cc2)c2cc(OC)ccc2-n2c(C)nnc21 (centres undefined) + CNCc1ccccc1-c1csc(C(C)Nc2nc(C)nc3cc(OC)c(OC)cc23)c1", 54.4]
]}

Next molecule, viability, T/C to be filled in.
Query: So what's the measured viability, T/C for this one? CC1(C)CCC(CN2CCN(c3ccc(C(=O)NS(=O)(=O)c4ccc(NCC5CCOCC5)c([N+](=O)[O-])c4)c(Oc4cnc5[nH]ccc5c4)c3)CC2)=C(c2ccc(Cl)cc2)C1 + COc1cc2nc(C)nc(NC(C)c3cc(N)cc(C(F)(F)F)c3)c2cc1OC1CCOC1
Response: 69.7

###

system: 276233-004-R-J1-PDC KRAS spheroids with HUVEC/MSC, viability; experiment: Anticancer human tumor 276233-004-R-J1-PDC cell line growth inhibition [KRAS2]; conditions: curve of first compound; second compound 0.1 µM;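 note: cells exposed to agents for seven days before viability read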
observed property: IC50

Query: So what's the measured IC50 for this one? COc1cc2nccc(Oc3ccc(NC(=O)C4(C(=O)Nc5ccc(F)cc5)CC4)cc3)c2cc1OC + C=CC(=O)N1CCN(c2nc(=O)n(-c3c(C)ccnc3C(C)C)c3nc(-c4c(O)cccc4F)c(F)cc23)C(C)C1
Response: > 10 µM

Query: So what's the measured IC50 for this one? Cn1ncnc1[C@H]1c2n[nH]c(=O)c3cc(F)cc(c23)N[C@@H]1c1ccc(F)cc1 + CC1OCC2(CCN(c3cnc(Sc4ccnc(N)c4Cl)c(N)n3)CC2)C1N
Response: > 0.1 µM

Query: So what's the measured IC50 for this one? CC(C)n1nc(-c2ccc3oc(N)nc3c2)c2c(N)ncnc21 + CC1OCC2(CCN(c3cnc(Sc4ccnc(N)c4Cl)c(N)n3)CC2)C1N
Response: 0.0678 µM

Query: So what's the measured IC50 for this one? CC1(C)CCC(CN2CCN(c3ccc(C(=O)NS(=O)(=O)c4ccc(NCC5CCOCC5)c([N+](=O)[O-])c4)c(Oc4cnc5[nH]ccc5c4)c3)CC2)=C(c2ccc(Cl)cc2)C1 + C=CC(=O)N1CCN(c2nc(OCC3CCCN3C)nc3c2CCN(c2cccc4cccc(C)c24)C3)CC1CC#N
Response: > 10 µM

Query: So what's the measured IC50 for this one? CC(=O)OC12COC1CC(O)C1(C)C(=O)C(O)C3=C(C)C(OC(=O)C(O)C(NC(=O)OC(C)(C)C)c4ccccc4)CC(O)(C(OC(=O)c4ccccc4)C21)C3(C)C (stereo not given) + COc1cc2nc(C)nc(NC(C)c3cc(N)cc(C(F)(F)F)c3)c2cc1OC1CCOC1
Response: > 3.16 µM

Query: So what's the measured IC50 for this one? Cn1nccc1Nc1nccc(-c2cc3c(s2)C(C)(C)N(CCN2CCOCC2)C3=O)n1 + CC1OCC2(CCN(c3cnc(Sc4ccnc(N)c4Cl)c(N)n3)CC2)C1N
Response: 2.31 µM

Query: So what's the measured IC50 for this one? CC1OCC2(CCN(c3cnc(Sc4ccnc(N)c4Cl)c(N)n3)CC2)C1N (stereo not given) + CNCc1ccccc1-c1csc(C(C)Nc2nc(C)nc3cc(OC)c(OC)cc23)c1
Response: > 10 µM

Query: So what's the measured IC50 for this one? Cn1ncnc1[C@H]1c2n[nH]c(=O)c3cc(F)cc(c23)N[C@@H]1c1ccc(F)cc1 + C=CC(=O)N1CCN(c2nc(OCC3CCCN3C)nc3c2CCN(c2cccc4cccc(C)c24)C3)CC1CC#N
Response: > 0.1 µM

Query: So what's the measured IC50 for this one? CCNC(=O)CC1N=C(c2ccc(Cl)cc2)c2cc(OC)ccc2-n2c(C)nnc21 (stereo not given) + C=CC(=O)N1CCN(c2nc(=O)n(-c3c(C)ccnc3C(C)C)c3nc(-c4c(O)cccc4F)c(F)cc23)C(C)C1
Response: > 10 µM

Query: So what's the measured IC50 for this one? COC(=O)c1ccc2c(C(=Nc3ccc(N(C)C(=O)CN4CCN(C)CC4)cc3)c3ccccc3)c(O)[nH]c2c1 + C=CC(=O)N1CCN(c2nc(=O)n(-c3c(C)ccnc3C(C)C)c3nc(-c4c(O)cccc4F)c(F)cc23)C(C)C1
Response: > 10 µM

###

tested on: 276233-004-R-J1-PDC KRAS spheroids with HUVEC/MSC, viability; test: Anticancer human tumor 276233-004-R-J1-PDC cell line growth inhibition [KRAS2]; settings: curve of first compound; second compound 0.1 µM;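 note: cells exposed to agents for seven days before viability read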
pIC50: −log10 of the molar value.
observed property: pIC50

{"columns": ["compound", "observed property", "reading"],
 "data": [
  ["CC1COCCN1c1cc(-c2ccnn2C)c2ccnc(-c3ccn[nH]3)c2n1 (stereo unspecified) + CC1OCC2(CCN(c3cnc(Sc4ccnc(N)c4Cl)c(N)n3)CC2)C1N", "pIC50", "< 5.50"]
]}

Query: So what's the measured pIC50 for this one? CN(C)C/C=C/C(=O)Nc1cc2c(Nc3ccc(F)c(Cl)c3)ncnc2cc1O[C@H]1CCOC1 + CC1OCC2(CCN(c3cnc(Sc4ccnc(N)c4Cl)c(N)n3)CC2)C1N
Response: < 7.00

Query: So what's the measured pIC50 for this one? CC(=O)Nc1cccc(-n2c(=O)n(C3CC3)c(=O)c3c(Nc4ccc(I)cc4F)n(C)c(=O)c(C)c32)c1 + COc1cc2nc(C)nc(NC(C)c3cc(N)cc(C(F)(F)F)c3)c2cc1OC1CCOC1
Response: 8.25

Query: So what's the measured pIC50 for this one? CCN1CCN(Cc2ccc(Nc3ncc(F)c(-c4cc(F)c5nc(C)n(C(C)C)c5c4)n3)nc2)CC1 + CC1OCC2(CCN(c3cnc(Sc4ccnc(N)c4Cl)c(N)n3)CC2)C1N
Response: < 6.00

Query: So what's the measured pIC50 for this one? COc1cc2nccc(Oc3ccc(NC(=O)C4(C(=O)Nc5ccc(F)cc5)CC4)cc3)c2cc1OC + CC1OCC2(CCN(c3cnc(Sc4ccnc(N)c4Cl)c(N)n3)CC2)C1N
Response: < 5.00

Query: So what's the measured pIC50 for this one? CN(C)C/C=C/C(=O)Nc1cc2c(Nc3ccc(F)c(Cl)c3)ncnc2cc1O[C@H]1CCOC1 + C=CC(=O)N1CCN(c2nc(=O)n(-c3c(C)ccnc3C(C)C)c3nc(-c4c(O)cccc4F)c(F)cc23)C(C)C1
Response: < 7.00

Query: So what's the measured pIC50 for this one? CC(=O)Nc1cccc(-n2c(=O)n(C3CC3)c(=O)c3c(Nc4ccc(I)cc4F)n(C)c(=O)c(C)c32)c1 + C=CC(=O)N1CCN(c2nc(OCC3CCCN3C)nc3c2CCN(c2cccc4cccc(C)c24)C3)CC1CC#N
Response: 8.04

Query: So what's the measured pIC50 for this one? O=C(c1cc(Cc2n[nH]c(=O)c3ccccc23)ccc1F)N1CCN(C(=O)C2CC2)CC1 + COc1cc2nc(C)nc(NC(C)c3cc(N)cc(C(F)(F)F)c3)c2cc1OC1CCOC1
Response: < 5.00

Query: So what's the measured pIC50 for this one? Cn1nccc1Nc1nccc(-c2cc3c(s2)C(C)(C)N(CCN2CCOCC2)C3=O)n1 + C=CC(=O)N1CCN(c2nc(OCC3CCCN3C)nc3c2CCN(c2cccc4cccc(C)c24)C3)CC1CC#N
Response: < 5.00

Query: So what's the measured pIC50 for this one? Cn1ncnc1[C@H]1c2n[nH]c(=O)c3cc(F)cc(c23)N[C@@H]1c1ccc(F)cc1 + COc1cc2nc(C)nc(NC(C)c3cc(N)cc(C(F)(F)F)c3)c2cc1OC1CCOC1
Response: < 7.00

Query: So what's the measured pIC50 for this one? COc1cc(Nc2ncc3c(n2)-c2ccc(Cl)cc2C(c2c(F)cccc2OC)=NC3)ccc1C(=O)O + C=CC(=O)N1CCN(c2nc(=O)n(-c3c(C)ccnc3C(C)C)c3nc(-c4c(O)cccc4F)c(F)cc23)C(C)C1
Response: < 5.00
